The measurements presented in this section are drawn from PubChem BioAssay AID504834.

ASSAY PROCEDURE: Primary qHTS for delayed death inhibitors of the malarial parasite plastid, 96 hour incubation
MEASUREMENT PARAMETERS: P. falciparum luciferase reporter growth; series mostly up to 28.7 µM
The whole screen tested about 320,000 compounds, of which about 22,000 (6.9%) were called active. Not shown: some 27% with an inconclusive outcome. The call rests on the fitted dose curve; in most records, active means well fitted inhibition curve with a large enough effect; inconclusive means small, poorly fitted or top-dose-only effect, or another doubt; inactive means no such curve, though single readings can be large or run the other way. Many of the other results were omitted from the sample, so actives are more common in it than they were.
Returns: one label drawn from active, inactive

Inquiry: Hi team, can someone confirm the assay call for Cc1ccc(C)c(N2CCN(C(=O)CCCn3c(=O)c4cccn4c4cccnc43)CC2)c1 ?
Reply text: active

More entries:
Inquiry: Hi team, can someone confirm the assay call for CCCOc1ccc(N/C=C/C(=O)C(C)(C)C)cc1 ?
Reply text: inactive

Inquiry: Hi team, can someone confirm the assay call for COc1ccccc1CNS(=O)(=O)c1ccc(C)cc1 ?
Reply text: inactive

Inquiry: Hi team, can someone confirm the assay call for CS(=O)(=O)c1ccc(Cl)c(NC(=O)COC(=O)c2ncc(Cl)c(Cl)c2Cl)c1 ?
Reply text: inactive

Inquiry: Hi team, can someone confirm the assay call for O=C(CNC(=O)c1cccs1)N/N=C/c1cccc(Br)c1 ?
Reply text: inactive

Inquiry: Hi team, can someone confirm the assay call for CCCCc1ccc(NC(=S)NCCCN2CCOCC2)cc1 ?
Reply text: inactive

* * *

ASSAY PROCEDURE: Primary qHTS for delayed death inhibitors of the malarial parasite plastid, 96 hour incubation
MEASUREMENT PARAMETERS: P. falciparum luciferase reporter growth; series mostly up to 28.7 µM
About 22,000 (6.9%) of roughly 320,000 compounds were called active. About 27% were inconclusive and are not listed. The call rests on the fitted dose curve; in most records, active means well fitted inhibition curve with a large enough effect; inconclusive means small, poorly fitted or top-dose-only effect, or another doubt; inactive means no such curve, though single readings can be large or run the other way. Only a selection was taken, and actives are over-represented in it overall.
Returns: one label drawn from yes (1) = active, no (0) = inactive

Field: example entries. Status: answers known.
Inquiry: Hi team, can someone confirm the assay call for CCOc1ncccc1C(=O)OCC(=O)c1c[nH]c2ccccc12 ?
Reply text: no (0)

Inquiry: Hi team, can someone confirm the assay call for Cn1c(SCC(=O)N/N=C/c2ccc(O)c(O)c2)nc2ccccc21 ?
Reply text: no (0)

More entries:
Inquiry: Hi team, can someone confirm the assay call for O=S(=O)(NCCc1ccc(Cl)cc1)c1cccs1 ?
Reply text: no (0)

Inquiry: Hi team, can someone confirm the assay call for COc1cccc(C(=O)NCCSc2ccc(Br)cc2)c1 ?
Reply text: no (0)

Inquiry: Hi team, can someone confirm the assay call for O=C(O)Cc1csc(NC(=O)CSc2nnnn2-c2ccc(O)cc2)n1 ?
Reply text: no (0)

Inquiry: Hi team, can someone confirm the assay call for O=C(OCc1ccccc1)c1ccc(O)cc1 ?
Reply text: no (0)

Inquiry: Hi team, can someone confirm the assay call for Cc1ccc(C)c(NC(=O)C(c2ccccc2)N2CCN(CC(=O)NC3CC3)CC2)c1 (configuration not stated) ?
Reply text: yes (1)

Inquiry: Hi team, can someone confirm the assay call for COc1ccc(C(=O)NCc2nnc(SCCOc3ccccc3)n2C)cc1 ?
Reply text: no (0)

Inquiry: Hi team, can someone confirm the assay call for CS(=O)(=O)c1ccc(Cl)c(NC(=O)COC(=O)c2cccc(S(=O)(=O)N3CCCC3)c2)c1 ?
Reply text: no (0)

Inquiry: Hi team, can someone confirm the assay call for CC(=O)c1ccc(N2Cc3ccccc3C2)cc1 ?
Reply text: no (0)

Inquiry: Hi team, can someone confirm the assay call for C=CCc1ccccc1OCC(O)CN1CCN(CCO)CC1 (configuration not stated) ?
Reply text: no (0)

Inquiry: Hi team, can someone confirm the assay call for O=C(COC(=O)Cc1ccc(F)cc1)Nc1cc(S(=O)(=O)N2CCOCC2)ccc1N1CCCC1 ?
Reply text: no (0)

* * *

ASSAY PROCEDURE: Primary qHTS for delayed death inhibitors of the malarial parasite plastid, 96 hour incubation
MEASUREMENT PARAMETERS: P. falciparum luciferase reporter growth; series mostly up to 28.7 µM
Hit rate of the full screen: of about 320,000 compounds, about 22,000 (6.9%) were called active. Roughly 27% stayed inconclusive and do not appear here. The call rests on the fitted dose curve; in most records, active means well fitted inhibition curve with a large enough effect; inconclusive means small, poorly fitted or top-dose-only effect, or another doubt; inactive means no such curve, though single readings can be large or run the other way. This excerpt belongs to a sample that is enriched for actives.
Returns: one label drawn from active, inactive

Field: example entries. Status: answers known.
Inquiry: Hi team, can someone confirm the assay call for O=C(NCCCN1CCOCC1)c1cnn2c(-c3ccccc3)cc(-c3ccccc3)nc12 ?
Reply text: active

Inquiry: Hi team, can someone confirm the assay call for CCCc1cc(=O)[nH]c(SCC(=O)c2c(N)n(CC(C)C)c(=O)n(C)c2=O)n1 ?
Reply text: inactive

More entries:
Inquiry: Hi team, can someone confirm the assay call for O=C(NCCCN1CCOCC1)c1ccccc1NS(=O)(=O)c1ccc(Br)cc1 ?
Reply text: inactive

Inquiry: Hi team, can someone confirm the assay call for O=C(NCCCN1CCOCC1)c1ccccc1NS(=O)(=O)c1ccc(F)cc1 ?
Reply text: inactive

Inquiry: Hi team, can someone confirm the assay call for CSc1ccc(NC(=O)/C=C/C(=O)O)cc1 ?
Reply text: inactive

* * *

ASSAY PROCEDURE: Primary qHTS for delayed death inhibitors of the malarial parasite plastid, 96 hour incubation
MEASUREMENT PARAMETERS: P. falciparum luciferase reporter growth; series mostly up to 28.7 µM
Hit rate of the full screen: of about 320,000 compounds, about 22,000 (6.9%) were called active. About 27% were inconclusive and are not listed. Calls come from the whole dose curve; as a rule, active = well fitted inhibition curve with a large enough effect; inconclusive = small, poorly fitted or top-dose-only effect, or another doubt; inactive = no such curve, though single readings can be large or run the other way. The full list was thinned out, with actives kept by preference.
Returns: one label drawn from active, inactive

Field: example entries. Status: answers known.
Inquiry: Hi team, can someone confirm the assay call for O=C(CN1CCCCCC1)Nc1ccc(S(=O)(=O)N2CCCCC2)cc1 ?
Reply text: inactive

Inquiry: Hi team, can someone confirm the assay call for C=CCc1c(C)nc2cc(-c3ccccc3)[nH]n2c1=O ?
Reply text: inactive

More entries:
Inquiry: Hi team, can someone confirm the assay call for O=CN1CCN(C(=O)c2ccc3c(c2)OCO3)CC1 ?
Reply text: inactive

Inquiry: Hi team, can someone confirm the assay call for CCN(C(=O)CSc1ncnc2c1cnn2-c1ccccc1)C1CCS(=O)(=O)C1 (centres undefined) ?
Reply text: inactive

Inquiry: Hi team, can someone confirm the assay call for Cc1ccc(C2SCC(=O)N2c2ccccc2)cc1 (centres undefined) ?
Reply text: inactive

Inquiry: Hi team, can someone confirm the assay call for CCOC(=O)c1cn(CC)c2cc(F)c(F)cc2c1=O ?
Reply text: inactive

Inquiry: Hi team, can someone confirm the assay call for CCC(C)n1[nH]c(=O)c2c(C)cc(C)nc21 (centres undefined) ?
Reply text: inactive

Inquiry: Hi team, can someone confirm the assay call for Cc1cc(=O)n2[nH]c(-c3cccc(Cl)c3)cc2n1 ?
Reply text: inactive

Inquiry: Hi team, can someone confirm the assay call for CCc1ccc(C(=O)NC(=S)Nc2ccccc2N2CCOCC2)cc1 ?
Reply text: inactive

Inquiry: Hi team, can someone confirm the assay call for Cc1ccc(NC(=O)COc2ccc(/C=C3/NC(=O)NC3=O)cc2)cc1 ?
Reply text: inactive

Inquiry: Hi team, can someone confirm the assay call for Cc1nc(C(=O)Nc2ccc(Cl)cc2)sc1C1(C)CC(c2ccccc2)=NO1 (centres undefined) ?
Reply text: inactive

Inquiry: Hi team, can someone confirm the assay call for CCc1c(C)nc2cc(C)[nH]n2c1=O ?
Reply text: active

Inquiry: Hi team, can someone confirm the assay call for CC1CCCCC1NC(=O)c1cc(=O)[nH]c2ccccc12 (centres undefined) ?
Reply text: inactive

Inquiry: Hi team, can someone confirm the assay call for Cc1nc2nc(COc3ccccc3)[nH]n2c(=O)c1Cc1ccccc1 ?
Reply text: inactive

* * *

ASSAY PROCEDURE: Primary qHTS for delayed death inhibitors of the malarial parasite plastid, 96 hour incubation; further: potency means the concentration at half of the fitted maximal effect
MEASUREMENT PARAMETERS: P. falciparum luciferase reporter growth; series mostly up to 28.7 µM
The whole screen tested about 320,000 compounds, of which about 22,000 (6.9%) were called active. About 27% were inconclusive and are not listed. This excerpt belongs to a sample that is enriched for actives.
PARAMETER MEASURED: Potency

Past entries and their recorded results:
CC(=O)N1CCC(C(=O)OCc2ccc(Cl)cc2)(c2ccccc2)CC1 has a reported Potency of inactive

O=C(c1ccccc1)N1CCC(CC2CC(c3ccc(Cl)cc3)=NO2)(C(=O)NCC2CCCCC2)CC1 (stereo not given) has a reported Potency of 1.04 µM (active)

CCc1nccn1S(=O)(=O)c1cccc([N+](=O)[O-])c1 has a reported Potency of inactive

Cc1cc(-n2cnc(-c3cn(C)nc3C)n2)no1 has a reported Potency of inactive

CCOC(=O)c1c(S(=O)(=O)Nc2cccc(Cl)c2)c(C)n(C)c1C has a reported Potency of 10.4 µM (active)

More entries:
CCCCCCCNC(=O)C1(CC2CC(c3cccc(Br)c3)=NO2)CCN(C(=O)c2cc(OCC)c(OCC)c(OCC)c2)CC1 (stereo not given) has a reported Potency of 0.329 µM (active)

COCCN(C(=O)CCC(=O)Nc1nccs1)C(C(=O)NCCC(C)C)c1ccc(F)cc1 (stereo not given) has a reported Potency of inactive

O=C(Oc1ccc([N+](=O)[O-])cc1)c1ccc(Cl)c(S(=O)(=O)N2CCCCC2)c1 has a reported Potency of inactive

COC(=O)C1CCN(C(=O)c2ccc3oc(Cc4ccc(Cl)cc4)nc3c2)CC1 has a reported Potency of inactive

C/C=C/c1ccc(OCCCCN2CCC(C)CC2)c(OC)c1 has a reported Potency of 5.22 µM (active)
